# Test system: Cryptococcus neoformans
# assay.name: Antifungal activity against Cryptococcus neoformans KCCM 50564 after 1 day
# Format: functional
# test.conditions: KCCM 50564, 24 h
For each record, check the reported MIC: if it is below 10 µg/mL write criterion met, else write criterion not met.

{"columns": ["compound", "label"],
 "data": [
  ["Nc1nc(=O)[nH]cc1F [FLUCYTOSINE]", "criterion not met"],
  ["COC(=O)c1c(N)oc2c(C)c(C)c(O)cc12", "criterion not met"],
  ["CCOC(=O)c1c(N)oc2cc(Cl)c(O)cc12", "criterion not met"],
  ["COC(=O)c1c(N)oc2ccc(O)cc12", "criterion not met"],
  ["COC(=O)c1c(N)oc2cc(C)c(O)cc12", "criterion not met"],
  ["Cc1cc2oc(N)c(C#N)c2cc1O", "criterion met"],
  ["COC(=O)c1c(N)oc2c(C)c(C)c(O)c(Sc3ccccc3)c12", "criterion met"],
  ["N#Cc1c(N)oc2ccc(O)cc12", "criterion not met"],
  ["OC(Cn1cncn1)(Cn1cncn1)c1ccc(F)cc1F [FLUCONAZOLE]", "criterion met"],
  ["COC(=O)c1c(N)oc2c(C)c(C)c(O)c(Sc3cccc(F)c3)c12", "criterion met"],
  ["COC(=O)c1c(N)oc2c(C)c(C)c(O)c(Sc3cccc(C)c3)c12", "criterion met"],
  ["COC(=O)c1c(N)oc2cc(Cl)c(O)cc12", "criterion not met"]
]}

* * *

This listing pairs molecules with measured log10 of MIC.
# Test system: Candida tropicalis
# assay.name: Antifungal activity against Candida tropicalis KCCM 50662 after 1 day
# Format: functional
# test.conditions: KCCM 50662, 24 h
measured.quantity: log10 of MIC (log10 of the value in µg/mL)

{"columns": ["molecule", "log10 of MIC"],
 "data": [
  ["CCOC(=O)c1c(N)oc2ccc(O)cc12", 0.51],
  ["COC(=O)c1c(N)oc2c(C)c(C)c(O)c(Sc3ccc(C)c(C)c3)c12", 1.40],
  ["COC(=O)c1c(N)oc2c(C)c(C)c(O)cc12", 1.70],
  ["N#Cc1c(N)oc2ccc(O)cc12", 0.80],
  ["COC(=O)c1c(N)oc2c(C)c(C)c(O)c(Sc3ccc(C)cc3)c12", 1.40],
  ["Nc1nc(=O)[nH]cc1F [FLUCYTOSINE]", 0.80],
  ["COC(=O)c1c(N)oc2c(C)c(C)c(O)c(Sc3cccc(F)c3)c12", 1.70],
  ["COC(=O)C(C#N)C1=C(Cl)C(=O)C(C)=C(C)C1=O (configuration not stated)", 1.70],
  ["CCOC(=O)c1c(N)oc2cc(Cl)c(O)cc12", 1.10],
  ["CCOC(=O)c1c(N)oc2c(C)cc(O)c(C)c12", 0.80],
  ["OC(Cn1cncn1)(Cn1cncn1)c1ccc(F)cc1F [FLUCONAZOLE]", 0.80]
]}

* * *

# Tested on: Cryptococcus neoformans
# assay.name: Antifungal activity against Cryptococcus neoformans KCCM 50564 after 1 day
# Type: functional
# test.conditions: KCCM 50564, 24 h

{"columns": ["compound", "unit.symbol", "MIC"],
 "data": [
  ["COC(=O)c1c(N)oc2c(C)c(C)c(O)c(Sc3ccc(C)c(C)c3)c12", "µg/mL", 1.6],
  ["COC(=O)C(C#N)C1=C(Cl)C(=O)C(C)=C(C)C1=O (stereo unspecified)", "µg/mL", 6.3],
  ["Cc1c(O)ccc(O)c1C", "µg/mL", 12.5],
  ["CCOC(=O)c1c(N)oc2c(C)cc(O)c(C)c12", "µg/mL", 12.5],
  ["CCOC(=O)c1c(N)oc2ccc(O)cc12", "µg/mL", 12.5],
  ["COC(=O)c1c(N)oc2c(C)c(C)c(O)c(Sc3ccc(C)cc3)c12", "µg/mL", 6.3]
]}

* * *

# Tested on: Aspergillus flavus
# assay.name: Antifungal activity against Aspergillus flavus KCCM 11899 after 2 days
# Assay type: functional
# test.conditions: KCCM 11899, 48 h
Parameter: MIC. Scope: all listed entries.

{"columns": ["compound", "MIC (µg/mL)"],
 "data": [
  ["CCOC(=O)c1c(N)oc2c(C)cc(O)c(C)c12", 12.5],
  ["COC(=O)c1c(N)oc2cc(Cl)c(O)cc12", 6.3],
  ["OC(Cn1cncn1)(Cn1cncn1)c1ccc(F)cc1F", 25],
  ["COC(=O)c1c(N)oc2c(C)c(C)c(O)c(Sc3ccccc3)c12", 25],
  ["Cc1cc2oc(N)c(C#N)c2cc1O", 12.5],
  ["COC(=O)c1c(N)oc2ccc(O)cc12", 12.5],
  ["Cc1c(O)ccc(O)c1C", 12.5],
  ["COC(=O)c1c(N)oc2c(C)c(C)c(O)c(Sc3ccc(C)c(C)c3)c12", 3.2],
  ["CCOC(=O)c1c(N)oc2cc(Cl)c(O)cc12", 12.5],
  ["COC(=O)C(C#N)C1=C(Cl)C(=O)C(C)=C(C)C1=O (configuration not stated)", 12.5],
  ["CCOC(=O)c1c(N)oc2ccc(O)cc12", 6.3],
  ["COC(=O)c1c(N)oc2c(C)c(C)c(O)c(Sc3cccc(F)c3)c12", 3.2]
]}

* * *

# Test system: Aspergillus niger
# assay.name: Antifungal activity against Aspergillus niger KCTC 1231 after 2 days
# Format: functional
# test.conditions: KCTC 1231, 48 h
# log10 MIC values compiled below
measured.quantity: log10 MIC (log10 of the value in µg/mL)

{"columns": ["compound", "measured.quantity", "test.value"],
 "data": [
  ["N#Cc1c(N)oc2ccc(O)cc12", "log10 MIC", 0.80],
  ["OC(Cn1cncn1)(Cn1cncn1)c1ccc(F)cc1F", "log10 MIC", 1.10],
  ["CCOC(=O)c1c(N)oc2c(C)cc(O)c(C)c12", "log10 MIC", 1.10],
  ["CCOC(=O)c1c(N)oc2cc(Cl)c(O)cc12", "log10 MIC", 1.40],
  ["COC(=O)c1c(N)oc2c(C)c(C)c(O)c(Sc3ccccc3)c12", "log10 MIC", 1.10],
  ["Cc1c(O)ccc(O)c1C", "log10 MIC", 1.70],
  ["COC(=O)C(C#N)C1=C(Cl)C(=O)C(C)=C(C)C1=O (configuration not stated)", "log10 MIC", 1.40],
  ["CCOC(=O)c1c(N)oc2ccc(O)cc12", "log10 MIC", 0.51],
  ["COC(=O)c1c(N)oc2c(C)c(C)c(O)c(Sc3cccc(F)c3)c12", "log10 MIC", 0.20],
  ["Nc1nc(=O)[nH]cc1F", "log10 MIC", 1.10],
  ["COC(=O)c1c(N)oc2c(C)c(C)c(O)cc12", "log10 MIC", 0.80]
]}

* * *

# System: Aspergillus niger
# assay.name: Antifungal activity against Aspergillus niger KCTC 1231 after 2 days
# Format: functional
# test.conditions: KCTC 1231, 48 h
Entries and their measured MIC follow.

{"columns": ["compound.structure.string", "assayed.system", "value.qualifier", "MIC (mg/L)"],
 "data": [
  ["COC(=O)c1c(N)oc2c(C)c(C)c(O)c(Sc3ccc(C)c(C)c3)c12", "Aspergillus niger", "=", 12.5],
  ["COC(=O)c1c(N)oc2cc(Cl)c(O)cc12", "Aspergillus niger", "=", 6.3],
  ["COC(=O)c1c(N)oc2cc(C)c(O)cc12", "Aspergillus niger", "=", 12.5],
  ["COC(=O)c1c(N)oc2ccc(O)cc12", "Aspergillus niger", "=", 3.2],
  ["Cc1cc2oc(N)c(C#N)c2cc1O", "Aspergillus niger", ">", 50],
  ["COC(=O)c1c(N)oc2c(C)c(C)c(O)c(Sc3ccc(C)cc3)c12", "Aspergillus niger", "=", 25]
]}
